molecular target: TRPC4 (Homo sapiens, UniProt Q9UBN4); construct: human TRPC4a channel; experiment: whole-cell patch clamp in HEK293-TRPC4 cells (EA-evoked current); also Ca2+ influx assay
Sequence (Q9UBN4 whole entry): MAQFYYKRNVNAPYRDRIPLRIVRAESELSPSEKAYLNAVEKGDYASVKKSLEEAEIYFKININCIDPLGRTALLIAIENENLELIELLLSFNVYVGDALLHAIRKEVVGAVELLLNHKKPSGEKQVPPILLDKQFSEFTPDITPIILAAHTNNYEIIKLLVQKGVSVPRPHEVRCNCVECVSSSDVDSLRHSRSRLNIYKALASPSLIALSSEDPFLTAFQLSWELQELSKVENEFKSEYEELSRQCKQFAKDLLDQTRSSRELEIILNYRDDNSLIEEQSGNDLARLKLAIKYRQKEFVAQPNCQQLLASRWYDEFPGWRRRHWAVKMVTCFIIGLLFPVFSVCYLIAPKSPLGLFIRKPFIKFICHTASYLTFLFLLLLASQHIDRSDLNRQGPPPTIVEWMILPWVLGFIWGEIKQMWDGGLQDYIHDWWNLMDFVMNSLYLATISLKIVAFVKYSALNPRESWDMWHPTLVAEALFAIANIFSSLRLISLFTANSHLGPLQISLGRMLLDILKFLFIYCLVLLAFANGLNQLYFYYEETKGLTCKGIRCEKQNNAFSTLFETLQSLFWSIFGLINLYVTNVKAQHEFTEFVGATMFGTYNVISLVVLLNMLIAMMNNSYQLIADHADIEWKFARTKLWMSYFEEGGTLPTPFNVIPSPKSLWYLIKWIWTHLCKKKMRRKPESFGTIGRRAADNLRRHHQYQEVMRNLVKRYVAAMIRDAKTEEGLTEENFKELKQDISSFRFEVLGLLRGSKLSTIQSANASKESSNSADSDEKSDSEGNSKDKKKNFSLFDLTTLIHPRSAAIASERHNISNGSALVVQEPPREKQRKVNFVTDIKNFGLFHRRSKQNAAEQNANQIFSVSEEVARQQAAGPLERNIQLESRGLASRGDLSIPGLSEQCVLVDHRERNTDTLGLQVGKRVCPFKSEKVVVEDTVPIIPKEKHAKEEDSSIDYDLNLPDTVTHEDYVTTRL
measurement.type: pIC50
// pIC50: -log10(molar conc.)

Item under review: C=C(C)[C@@H]1CCC(C)=C[C@H]1c1c(O)cc(CCCCC)cc1O [CBD, Cannabidiol] . Reported pIC50?
5.82

Values from paper PMC11603362
